testSystem: T1, DR4 (TRAIL-R1) on cancer cells (human, UniProt O00220 24-468)
T1 sequence: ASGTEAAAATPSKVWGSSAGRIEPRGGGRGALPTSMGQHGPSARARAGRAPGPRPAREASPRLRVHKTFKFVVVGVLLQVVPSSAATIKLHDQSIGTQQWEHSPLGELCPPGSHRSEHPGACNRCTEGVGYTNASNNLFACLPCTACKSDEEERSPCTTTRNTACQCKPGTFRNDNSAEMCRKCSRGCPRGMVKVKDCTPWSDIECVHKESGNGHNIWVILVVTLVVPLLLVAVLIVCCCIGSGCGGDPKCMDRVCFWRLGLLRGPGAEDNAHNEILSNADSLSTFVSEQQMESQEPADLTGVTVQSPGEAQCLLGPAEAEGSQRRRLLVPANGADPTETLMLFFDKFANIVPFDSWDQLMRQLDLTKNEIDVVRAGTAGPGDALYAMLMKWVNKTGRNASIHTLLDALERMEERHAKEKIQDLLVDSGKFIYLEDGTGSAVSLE
assaySummary: cell-based or functional assay
measureName: H2122 % killing (% of TRAIL activity) (%)
The response must be a number in % with no trailing unit.

Solved cases below.
| binder | unitInfo | H2122 % killing (% of TRAIL activity) |
| --- | --- | --- |
| 71p88P1A1 (designed binder) EPPTQKPKKIVNAKKDVVNTKMFEELKSRLDTLAQEVALLKEQQALQTVCLKGTKVHMKCFLAFTQTKTFHEASEDCISRGGTLSTPQTGSENDALYEYLRQSVGNEAEIWLGLNGWMDGSGWVDMTGARIAYKNWETEITAQPDGGRLWRWENCAVLSGAANGKWFDKRCRDQLPYICQFGIV | % | -2 |
| 71p88P1F2 (designed binder) EPPTQKPKKIVNAKKDVVNTKMFEELKSRLDTLAQEVALLKEQQALQTVCLKGTKVHMKCFLAFTQTKTFHEASEDCISRGGTLSTPQTGSENDALYEYLRQSVGNEAEIWLGLNGWLEGSGWVDMTGARIAYKNWETEITAQPDGGFPARWENCAVLSGAANGKWFDKRCRDQLPYICQFGIV | % | -5 |
| 71p88P1D9 (designed binder) EPPTQKPKKIVNAKKDVVNTKMFEELKSRLDTLAQEVALLKEQQALQTVCLKGTKVHMKCFLAFTQTKTFHEASEDCISRGGTLSTPQTGSENDALYEYLRQSVGNEAEIWLGLNGWVAGVGWVDMTGARIAYKNWETEITAQPDGGGGWRWENCAVLSGAANGKWFDKRCRDQLPYICQFGIV | % | -3 |
| 71p88P1B9 (designed binder) EPPTQKPKKIVNAKKDVVNTKMFEELKSRLDTLAQEVALLKEQQALQTVCLKGTKVHMKCFLAFTQTKTFHEASEDCISRGGTLSTPQTGSENDALYEYLRQSVGNEAEIWLGLNGWLAGSGWVDMTGARIAYKNWETEITAQPDGGGGWPWENCAVLSGAANGKWFDKRCRDQLPYICQFGIV | % | 3 |

*Q* Quick one: H2122 % killing (% of TRAIL activity) for 71p88P1B4 (designed binder) EPPTQKPKKIVNAKKDVVNTKMFEELKSRLDTLAQEVALLKEQQALQTVCLKGTKVHMKCFLAFTQTKTFHEASEDCISRGGTLSTPQTGSENDALYEYLRQSVGNEAEIWLGLNGWLEGYGWVDMTGARIAYKNWETEITAQPDGGAERAWENCAVLSGAANGKWFDKRCRDQLPYICQFGIV ?
*A* -5
